Data origin, for the record: PubChem BioAssay (NCI)

// reported growth inhibition per item
experiment: NCI Yeast Anticancer Drug Screen. Data for the cln2 rad14 strain (AID 165);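 further: 0% = growth equal to vehicle treated cultures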; details: S. cerevisiae cln2 rad14 strain, at 50.0 µM, stronger effect = higher value
This is part of a sample that, as a whole, favours compounds with a hit. Of some 79,000 tested, about 15% had one in any assay. Where a SMILES comes first, the peptide text is derived from it. The star is where a group is joined. Cbz = O=C(OCc1ccccc1)*
State just the number; it will be interpreted in %.

[[record]]
molecule = "O=C1OC(c2ccccc2)N(C(=O)c2ccccc2)C1Cc1ccc(OCc2ccccc2)cc1 (stereo not given)"
observed_result = -13.7


Per the records, this molecule ( `CC(C)OC(=O)c1ccc(=O)oc1` ) has growth inhibition equal to -8.75

For reference, reported growth inhibition for `COc1cc2nccnc2c(N)c1OC` stands at -1.7

// growth inhibition lookup, molecule = CC(O)C(NC(=O)C(Cc1ccc(O)cc1)NC(=O)OCc1ccccc1)C(=O)O (stereo not drawn) (Cbz-Tyr-Thr-OH; configuration not given here) , result: -35.8

response.value for COC(=O)C1CCC(C)(C(=O)OC)C1(C)C (stereo not given) (field: growth inhibition) = -1.3

* * *

assay: NCI Yeast Anticancer Drug Screen. Data for the mec2-1 strain (AID 157); details: S. cerevisiae mec2-1 strain, at 50.0 µM, stronger effect = higher value
This is part of a sample that, as a whole, favours compounds with a hit. Of some 79,000 tested, about 15% had one in any assay.
Assay Metric: growth inhibition (%)
Please give a number only; it is taken to be in %.

Consider the reported growth inhibition for these compounds:
[[record]]
compound = "Cc1ccccc1NC(=O)/C(C#N)=N\\Nc1nc[nH]c1C(N)=O"
unit_abbreviation = "%"
observed_result = -22.6

[[record]]
compound = "Cc1cc2c3c(c1)CCCN3CCC2"
unit_abbreviation = "%"
observed_result = -8.9


The measured growth inhibition associated with `CC(=O)Nc1ccc2oc(=O)ccc2c1` reads -12.7

Entry under test: N#CCCNC(CC(=O)O)C(=O)O (configuration not stated) . Its growth inhibition was 1.55

growth inhibition measured on `O=C(C[n+]1cc(Br)cc(Br)c1)c1ccc2ccccc2c1` = 3.45

Please fill in: growth inhibition reported for COC(=O)C1CCC(=O)N1C(c1ccc(OC)cc1)c1ccc(OC)cc1 (configuration not stated) = 25.6

growth inhibition reading for `Cc1ccc(OC(=O)c2cc([N+](=O)[O-])cc([N+](=O)[O-])c2)cc1` : -0.5

* * *

# growth inhibition annotations
experiment: NCI Yeast Anticancer Drug Screen. Data for the bub3 strain (AID 167); details: S. cerevisiae bub3 mutant strain, at 50.0 µM, stronger effect = higher value
This is part of a sample that, as a whole, favours compounds with a hit. Of some 79,000 tested, about 15% had one in any assay. The source made the active and inactive calls. No stated cut-off is given here; in the data, active means growth inhibition above about 70%; inactive means the rest.

Below, each entry is followed by its recorded growth inhibition result.
[[record]]
molecule = "CCCC(=O)c1ccc2c(c1)CCc1cc(O)ccc1-2"
observed_result = "23.4% (inactive)"

[[record]]
molecule = "CN1C(=O)/C(=C2\\SC(=O)N(CN3CCCCC3)C2=O)c2cc(Br)ccc21"
observed_result = "-2.45% (inactive)"

[[record]]
molecule = "Nc1ccccc1N/N=C/c1ccccc1"
observed_result = "-15.3% (inactive)"

[[record]]
molecule = "CCCCCCCCCCCCCCCCCCCCCCCCC(O)C(=O)O (centres undefined) (tested in a mixture with another compound)"
observed_result = "7.7% (inactive)"

[[record]]
molecule = "O=C(c1ccc(Cl)cc1)C(C(c1ccccc1[N+](=O)[O-])N1CCCCC1)N1CCCCC1 (centres undefined)"
observed_result = "-23.6% (inactive)"


# molecule `CC(=O)Nc1ccc(/C=N/NS(=O)(=O)c2ccc(C)cc2)cc1` ; its growth inhibition = 30.6% (inactive)

The value of growth inhibition measured for the molecule `COc1ccc(C=Nc2ccc(C(=O)O)cc2)cc1` turned out to be 13.9% (inactive)

Measured growth inhibition, C[N+]([O-])(C/C=C/c1ccccc1)c1ccccc1 (centres undefined) : -29.1% (inactive)

Notebook: `O=C(O)c1c2c(nc3ccccc13)Cc1ccccc1-2` , growth inhibition read as 17.3% (inactive)

So for `Cc1cc([N+](=O)[O-])ccn1` , the logged growth inhibition turned out to be -6.15% (inactive)

Note to self: growth inhibition recorded for `Nc1nnc2nc(CC(=O)Cc3ccccc3)c(CC(=O)Cc3ccccc3)nn12` was 10.7% (inactive)

Lookup result for `CCCc1ccc(N)cc1` ; measured growth inhibition: -24.4% (inactive)

Documented growth inhibition of `N#Cc1nn(CCCl)c(=O)c2ccccc12` : 12.2% (inactive)

Entry `Cc1cc(C)c(S(=O)(=O)O)cc1N` , growth inhibition reported as -0.05% (inactive)

Notebook: `COCn1cnc2c(F)ncnc21` , growth inhibition read as -11.2% (inactive)

* * *

# Lookup of reported growth inhibition keyed by entry
test: NCI Yeast Anticancer Drug Screen. Data for the sgs1 mgt1 strain (AID 161);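 further: 0% = growth of cultures given vehicle only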; settings: S. cerevisiae sgs1 mgt1 strain, at 50.0 µM, stronger effect = higher value
About 79,000 compounds went through this panel and 15% of them were active in at least one assay; those are over-represented in the sample as a whole.
Numeric answer only, unit % assumed.

Entry under test: `O=C(NC12CC3CC(NC(=O)c4ccccc4)(CC(C1)c1ccccc13)C2)c1ccccc1` . Its growth inhibition was 57.4

growth inhibition reported for this compound `CCCCCCCCCCCCCCCCC1Cc2ccccc2C1` : -12.8

The compound identified as `COc1ccc(S(=O)(=O)Oc2ccc(Cl)cc2)cc1` registered its growth inhibition at 18.1

Data point: O=C(O)C1CCCCN1/N=C/c1cccc([N+](=O)[O-])c1 (stereo unspecified) ; growth inhibition = 22

So, `Cn1nnnc1NN(c1nnnn1C)C1C=CCC=C1` ? Its growth inhibition was 0

response.value for `CCOC(=O)C1=C(C)NC(C)=C(C(=O)OCC)C1` (field: growth inhibition) = -1.5

* * *

assay: NCI Yeast Anticancer Drug Screen. Data for the rad50 strain (AID 155);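 further: 0% = growth of vehicle-only cultures of the same strain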; details: S. cerevisiae rad50 strain growth inhibition; at 50.0 µM; stronger effect = higher value
About 79,000 compounds went through this panel and 15% of them were active in at least one assay; those are over-represented in the sample as a whole.
Parameter: growth inhibition. Scope: all listed entries.
Give the value, in units of %, as a plain number.

Below are worked cases with known answers.
[[record]]
compound = "O=C(CCc1ccccc1CO)NCCc1ccccc1"
assay_metric = "growth inhibition"
observed_result = 52

[[record]]
compound = "CC1=NC(C(N)=O)C(=O)N1 (configuration not stated)"
assay_metric = "growth inhibition"
observed_result = -35

[[record]]
compound = "Nc1nc2c(nc(Br)n2C2OC(CO)C(O)C2O)c(=O)[nH]1 (configuration not stated)"
assay_metric = "growth inhibition"
observed_result = -2.05

[[record]]
compound = "CN/N=C(\\C(=O)Nc1ccc([N+](=O)[O-])cc1[N+](=O)[O-])C1NC(=O)NC1=O (configuration not stated)"
assay_metric = "growth inhibition"
observed_result = 23.8

[[record]]
compound = "CCOC(=O)C1(C)CCCCC1=O (configuration not stated)"
assay_metric = "growth inhibition"
observed_result = 7.45

[[record]]
compound = "O=C(O)C1CSCN1 (configuration not stated)"
assay_metric = "growth inhibition"
observed_result = -3.85


Could you now look at the following compound, please?
The compound listed as `Cc1cc2c(=O)cc(-c3ccncc3)oc2c(C(=O)O)c1C` shows growth inhibition equal to 20.7

* * *

// reported growth inhibition for each item listed
assay: NCI Yeast Anticancer Drug Screen. Data for the rad50 strain (AID 155);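 further: 0% = growth of vehicle-only cultures of the same strain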; conditions: S. cerevisiae rad50 strain growth inhibition; at 50.0 µM; stronger effect = higher value
Compounds without any hit were thinned out: in the full panel of roughly 79,000, 15% have a hit.
Report as a plain number; the unit % is understood.

[[record]]
compound = "COC(=O)/C(=N\\O)C(C(=O)C=C(C)C)C(=O)C(=O)Nc1ccccc1C (centres undefined)"
unit_abbreviation = "%"
observed_result = -5.8


For `O=c1[nH]c(-c2ccccc2)nc(-c2ccccc2)c1Cc1cc2c(cc1O)OCC2` the compound record lists growth inhibition as -0.1

* * *

Listed next: entries and their corresponding growth inhibition.
assay: NCI Yeast Anticancer Drug Screen. Data for the cln2 rad14 strain (AID 165);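 further: 0% = growth equal to vehicle treated cultures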; details: S. cerevisiae cln2 rad14 strain, at 50.0 µM, stronger effect = higher value
The panel holds about 79,000 compounds, 15% with a hit somewhere; the sample as a whole holds those more often. Active and inactive are the calls of the source. No stated cut-off is given here; in the data, active means growth inhibition above about 70%; inactive means the rest.

[[record]]
compound = "O=C(O)c1cc(Nc2nc(Cl)nc(Cl)n2)ccc1-c1c2ccc(=O)cc-2oc2cc(O)ccc12"
assay_metric = "growth inhibition"
observed_result = "10% (inactive)"


For C=C(C)C(=O)NC(Cc1cnc[nH]1)C(=O)O (stereo not drawn) the compound record lists growth inhibition as 1.15% (inactive)

Form field growth inhibition, entry `N#CCC1(O)c2ccccc2-c2ccccc21` : -6.25% (inactive)

response.value for CC(=O)OCC1OC(n2cc([N+](=O)[O-])c(=O)[nH]c2=O)C(OC(C)=O)C(OC(C)=O)C1OC(C)=O (stereo not drawn) (field: growth inhibition) = -20% (inactive)

The compound listed as CC12CCC3c4ccc(O)cc4CCC3C1CC(OC1OC(C(=O)O)C(O)C(O)C1O)C2O (stereo not drawn) has a reported growth inhibition of 2.4% (inactive)
